Reference source for all entries: ChEMBL document CHEMBL3526033

target: CYP2D6 (Homo sapiens, UniProt P10635); experiment: Activity of human recombinant CYP2D6 assessed as enzyme-mediated drug metabolism at 10 uM after 120 mins by LC-MS/MS analysis in presence of NADPH; type: ADME; conditions: read-out: Compound recovery
Sequence (P10635 whole entry): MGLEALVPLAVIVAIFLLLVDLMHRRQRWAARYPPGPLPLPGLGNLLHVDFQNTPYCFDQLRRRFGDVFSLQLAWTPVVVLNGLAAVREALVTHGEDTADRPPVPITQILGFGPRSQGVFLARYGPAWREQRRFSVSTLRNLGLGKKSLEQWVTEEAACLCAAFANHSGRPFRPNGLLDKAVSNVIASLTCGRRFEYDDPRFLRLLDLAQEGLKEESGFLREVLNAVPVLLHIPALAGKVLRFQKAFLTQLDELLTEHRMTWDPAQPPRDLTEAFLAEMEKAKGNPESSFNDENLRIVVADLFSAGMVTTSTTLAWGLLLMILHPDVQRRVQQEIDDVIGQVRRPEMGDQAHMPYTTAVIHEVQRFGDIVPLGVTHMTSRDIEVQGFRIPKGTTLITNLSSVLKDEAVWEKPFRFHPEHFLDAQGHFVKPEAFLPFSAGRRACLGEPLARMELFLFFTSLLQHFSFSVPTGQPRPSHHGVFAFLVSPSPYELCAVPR
endpoint: remaining at 2 h, 10 µM (%)
Value expressed in %; do not type the unit.

Fill in: remaining at 2 h, 10 µM of CCOC(=O)N[C@@H]1CC[C@@H]2[C@@H](C1)C[C@H]1C(=O)O[C@H](C)[C@H]1[C@H]2/C=C/c1ccc(-c2cccc(F)c2)cn1 is ___
98.1

* * *

molecular target: CYP2C9 (Homo sapiens, UniProt P11712); assay: Activity of human recombinant CYP2C9 assessed as enzyme-mediated drug metabolism at 10 uM after 120 mins by LC-MS/MS analysis in presence of NADPH; type: ADME; details: read-out: Compound recovery
Sequence (P11712 whole entry): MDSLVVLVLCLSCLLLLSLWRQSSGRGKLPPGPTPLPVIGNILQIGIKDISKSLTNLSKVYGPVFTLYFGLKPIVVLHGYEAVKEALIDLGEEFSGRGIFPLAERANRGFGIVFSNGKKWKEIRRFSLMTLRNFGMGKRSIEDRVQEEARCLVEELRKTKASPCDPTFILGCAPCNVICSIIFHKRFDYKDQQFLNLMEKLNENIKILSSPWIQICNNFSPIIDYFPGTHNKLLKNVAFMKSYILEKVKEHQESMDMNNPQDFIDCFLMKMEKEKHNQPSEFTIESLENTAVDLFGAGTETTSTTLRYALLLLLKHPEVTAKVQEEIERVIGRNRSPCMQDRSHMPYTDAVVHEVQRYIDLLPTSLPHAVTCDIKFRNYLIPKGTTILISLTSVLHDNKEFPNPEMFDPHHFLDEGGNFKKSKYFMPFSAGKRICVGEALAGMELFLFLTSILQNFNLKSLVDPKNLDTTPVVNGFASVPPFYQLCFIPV
endpoint: remaining at 2 h, 10 µM (%)
Give the value, in units of %, as a plain number.

Look up remaining at 2 h, 10 µM for this compound: CCOC(=O)N[C@@H]1CC[C@@H]2[C@@H](C1)C[C@H]1C(=O)O[C@H](C)[C@H]1[C@H]2/C=C/c1ccc(-c2cccc(F)c2)cn1
98.8

* * *

experiment: Drug metabolism in human liver S9 fraction assessed as compound remaining at 10 uM after 120 mins by LC-MS/MS analysis in presence of NADPH; assay type: ADME, subcellular; conditions: read-out: Compound recovery
endpoint: remaining at 2 h, 10 µM (%)
Report the value in % with no unit label.

What does the record list as remaining at 2 h, 10 µM for CCOC(=O)N[C@@H]1CC[C@@H]2[C@@H](C1)C[C@H]1C(=O)O[C@H](C)[C@H]1[C@H]2/C=C/c1ccc(-c2cccc(F)c2)cn1 [VORAPAXAR] ?
95.7

* * *

experiment: Drug metabolism in insect microsomes at 10 uM after 120 mins by LC-MS/MS analysis in presence of NADPH; type: ADME, Microsome; settings: read-out: Compound recovery
endpoint: remaining at 2 h, 10 µM
Note to self: number, then unit, no commentary.

Fill in: remaining at 2 h, 10 µM of CCOC(=O)N[C@@H]1CC[C@@H]2[C@@H](C1)C[C@H]1C(=O)O[C@H](C)[C@H]1[C@H]2/C=C/c1ccc(-c2cccc(F)c2)cn1 is ___
98.7%

* * *

target: CYP1A2 (Homo sapiens); assay: Activity of human recombinant CYP1A2 assessed as enzyme-mediated drug metabolism at 10 uM after 120 mins by LC-MS/MS analysis in presence of NADPH; format: ADME; details: read-out: Compound recovery
Sequence (P05177 whole entry): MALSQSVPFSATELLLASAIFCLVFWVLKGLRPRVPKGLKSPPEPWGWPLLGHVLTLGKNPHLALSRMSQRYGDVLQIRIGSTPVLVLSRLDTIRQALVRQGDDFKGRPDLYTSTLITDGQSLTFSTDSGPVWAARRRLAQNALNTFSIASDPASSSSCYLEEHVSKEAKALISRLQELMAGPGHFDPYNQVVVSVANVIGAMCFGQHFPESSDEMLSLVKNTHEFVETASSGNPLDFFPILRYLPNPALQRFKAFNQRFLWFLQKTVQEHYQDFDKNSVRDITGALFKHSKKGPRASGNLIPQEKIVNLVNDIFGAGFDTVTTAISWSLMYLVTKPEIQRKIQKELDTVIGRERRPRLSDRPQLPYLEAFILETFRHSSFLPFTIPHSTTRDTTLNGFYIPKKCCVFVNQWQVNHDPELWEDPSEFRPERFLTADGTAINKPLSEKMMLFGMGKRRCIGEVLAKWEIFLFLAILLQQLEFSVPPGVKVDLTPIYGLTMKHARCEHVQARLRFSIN
endpoint: remaining at 2 h, 10 µM
Entry format: amount then unit.

Notebook: pull reported remaining at 2 h, 10 µM for CYP1A2 (Homo sapiens), entry CCOC(=O)N[C@@H]1CC[C@@H]2[C@@H](C1)C[C@H]1C(=O)O[C@H](C)[C@H]1[C@H]2/C=C/c1ccc(-c2cccc(F)c2)cn1
98.3%

* * *

assay: Drug metabolism in human liver microsomes assessed as compound remaining at 10 uM after 120 mins by LC-MS/MS analysis in presence of NADPH; type: ADME; conditions: read-out: Compound recovery
endpoint: remaining at 2 h, 10 µM (%)
Please reply with the bare figure in % and do not write the unit itself.

Would you kindly share the measured remaining at 2 h, 10 µM for CCOC(=O)N[C@@H]1CC[C@@H]2[C@@H](C1)C[C@H]1C(=O)O[C@H](C)[C@H]1[C@H]2/C=C/c1ccc(-c2cccc(F)c2)cn1 [VORAPAXAR] ?
92.7
